# Subject Of Test: deadenylylated MtbGS (Mycobacterium tuberculosis, UniProt P9WN39)
# Construct: made in house; host or cells: E. coli YMC11E with pTBSK
# Sequence (P9WN39 2-478 limits assumed): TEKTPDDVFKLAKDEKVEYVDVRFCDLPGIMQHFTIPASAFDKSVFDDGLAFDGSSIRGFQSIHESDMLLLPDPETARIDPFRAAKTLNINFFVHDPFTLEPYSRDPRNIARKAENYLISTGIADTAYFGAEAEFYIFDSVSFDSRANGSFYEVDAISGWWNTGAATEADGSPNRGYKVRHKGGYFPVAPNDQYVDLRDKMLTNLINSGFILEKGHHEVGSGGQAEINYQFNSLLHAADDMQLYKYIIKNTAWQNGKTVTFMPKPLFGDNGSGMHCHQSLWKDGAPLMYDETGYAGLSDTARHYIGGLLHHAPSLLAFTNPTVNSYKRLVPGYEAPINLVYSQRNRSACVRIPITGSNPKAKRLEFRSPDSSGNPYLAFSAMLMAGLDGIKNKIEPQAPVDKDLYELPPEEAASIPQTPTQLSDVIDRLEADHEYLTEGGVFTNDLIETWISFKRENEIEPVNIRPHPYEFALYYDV
# Experiment Summary: biochemical
# Parameters: species or system M. tuberculosis
# Setup Conditions: dose-response assay, pre-incubation protocol; single assay values
Parameter: IC50 (nM)

- Compound: "CP(=O)(O)CC[C@H](N)C(=O)O [PhosT, phosphinotricin, reference compound]"
  Number: 830

----------
# Subject Of Test: adenylylated MtbGS (Mycobacterium tuberculosis)
# Construct: made in house; host or cells: E. coli YMC11E(DE3) with pTBSK and pTBglnE
# Experiment Summary: biochemical
# Type: biochemical, M. tuberculosis
# Setup Conditions: dose-response assay, pre-incubation protocol; single assay values; read-out: IC50, adenylylated MtbGS
pIC50: −log10 of the molar value.
Parameter: pIC50

- Molecule: "CP(=O)(O)CC[C@H](N)C(=O)O [PhosT, phosphinotricin, reference compound]"
  Parameter: "pIC50"
  Number: 7.80

----------
# Subject Of Test: adenylylated MtbGS (Mycobacterium tuberculosis, UniProt P9WN39)
# Construct: made in house; host or cells: E. coli YMC11E(DE3) with pTBSK and pTBglnE
# Experiment Summary: biochemical
# Assay type: biochemical, M. tuberculosis
# Setup Conditions: 10μM final concentration, pre-incubation protocol, screen 2; read-out: Adenylated Mtb GS (% inhibition) Screen 2

- Compound: "O=C(O)c1ccncc1"
  Unit Label: "%"
  inhibition at 10 µM: 40
- Compound: "NC(CCS(=O)(=O)O)C(=O)O (stereo not drawn)"
  Unit Label: "%"
  inhibition at 10 µM: 33
- Compound: "CP(=O)(O)CC[C@H](N)C(=O)O [PhosT, phosphinotricin, reference compound]"
  Unit Label: "%"
  inhibition at 10 µM: 95
- Compound: "c1ccc(CNc2cc(N3CCCC3)ncn2)cc1"
  Unit Label: "%"
  inhibition at 10 µM: 46
- Compound: "Nc1nc(N)c(NC(=O)c2ccccc2)c(O)n1"
  Unit Label: "%"
  inhibition at 10 µM: 50
- Compound: "O=C1NC(C(=O)O)=C(C(=O)O)C(c2ccc([N+](=O)[O-])cc2)N1 (stereo not drawn)"
  Unit Label: "%"
  inhibition at 10 µM: 31
- Compound: "Nc1nc(O)c2ccccc2n1"
  Unit Label: "%"
  inhibition at 10 µM: 32
- Compound: "Cc1nc(N)cc(C[n+]2csc(CCOP(=O)(O)O)c2C)n1"
  Unit Label: "%"
  inhibition at 10 µM: 43
- Compound: "Cc1cccc(C)c1Nc1c(C(C)C)nc2ccccn12"
  Unit Label: "%"
  inhibition at 10 µM: 99
- Compound: "COc1ccc(-c2nc3ccccn3c2Nc2c(C)cccc2C)cc1OC"
  Unit Label: "%"
  inhibition at 10 µM: 99
- Compound: "O=NN(Cc1ccccc1)c1cc(N2CCCC2)ncn1"
  Unit Label: "%"
  inhibition at 10 µM: 0
- Compound: "OCCNc1cc(N2CCCC2)ncn1"
  Unit Label: "%"
  inhibition at 10 µM: 48

----------
The reader will find reported inhibition at 10 µM values listed item by item below.
# Subject Of Test: deadenylylated MtbGS (Mycobacterium tuberculosis, UniProt P9WN39)
# Construct: made in house; host or cells: E. coli YMC11E with pTBSK
# Experiment Summary: biochemical
# Set-up: species or system M. tuberculosis
# Setup Conditions: 10μM final concentration, pre-incubation protocol, screen 3; read-out: Deadenylated Mtb GS (% inhibition) Screen 3

- Compound: "Cc1nc(N)cc(C[n+]2csc(CCOP(=O)(O)O)c2C)n1"
  inhibition at 10 µM (%): 3
- Compound: "O=C1NC(C(=O)O)=C(C(=O)O)C(c2ccc([N+](=O)[O-])cc2)N1 (stereo not shown)"
  inhibition at 10 µM (%): 4
- Compound: "O=C(O)c1ccncc1"
  inhibition at 10 µM (%): 8
- Compound: "NC(CCS(=O)(=O)O)C(=O)O (stereo not shown)"
  inhibition at 10 µM (%): 6

----------
# Subject Of Test: adenylylated MtbGS (Mycobacterium tuberculosis)
# Construct: made in house; host or cells: E. coli YMC11E(DE3) with pTBSK and pTBglnE
# Experiment Summary: biochemical
# Format: biochemical, M. tuberculosis
# Setup Conditions: 10μM final concentration, pre-incubation protocol, screen 1; read-out: Adenylated Mtb GS (% inhibition) Screen 1

- Chemical String: "Cc1nc(N)cc(C[n+]2csc(CCOP(=O)(O)O)c2C)n1"
  Subject Of Test: "adenylylated MtbGS (Mycobacterium tuberculosis)"
  inhibition at 10 µM / %: 51
- Chemical String: "c1ccc(CNc2cc(N3CCCC3)ncn2)cc1"
  Subject Of Test: "adenylylated MtbGS (Mycobacterium tuberculosis)"
  inhibition at 10 µM / %: 79
- Chemical String: "COc1ccc(-c2nc3ccccn3c2Nc2c(C)cccc2C)cc1OC"
  Subject Of Test: "adenylylated MtbGS (Mycobacterium tuberculosis)"
  inhibition at 10 µM / %: 82

----------
# Subject Of Test: deadenylylated MtbGS (Mycobacterium tuberculosis, UniProt P9WN39)
# Construct: made in house; host or cells: E. coli YMC11E with pTBSK
# Experiment Summary: biochemical
# Design: species or system M. tuberculosis
# Setup Conditions: 10μM final concentration, pre-incubation protocol, screen 4; read-out: Deadenylated Mtb GS (% inhibition) Screen 4
Below, each of the compounds is paired with its reported inhibition at 10 µM value.
Parameter: inhibition at 10 µM

- Compound: "COc1ccc(-c2nc3ccccn3c2Nc2c(C)cccc2C)cc1OC [Compound 10059]"
  Parameter: "inhibition at 10 µM"
  Result: "43%"
- Compound: "Nc1nc(N)c(NC(=O)c2ccccc2)c(O)n1 [Compound 5009]"
  Parameter: "inhibition at 10 µM"
  Result: "44%"
- Compound: "Cc1cccc(C)c1Nc1c(C(C)C)nc2ccccn12 [Compound 10057]"
  Parameter: "inhibition at 10 µM"
  Result: "58%"
- Compound: "c1ccc(CNc2cc(N3CCCC3)ncn2)cc1 [Compound 5029]"
  Parameter: "inhibition at 10 µM"
  Result: "9%"
- Compound: "Cc1nc(N)cc(C[n+]2csc(CCOP(=O)(O)O)c2C)n1 [Compound 5016]"
  Parameter: "inhibition at 10 µM"
  Result: "13%"
- Compound: "O=C1NC(C(=O)O)=C(C(=O)O)C(c2ccc([N+](=O)[O-])cc2)N1 (centres unmarked) [Compound 5012]"
  Parameter: "inhibition at 10 µM"
  Result: "24%"
- Compound: "CP(=O)(O)CC[C@H](N)C(=O)O [PhosT, phosphinotricin, reference compound]"
  Parameter: "inhibition at 10 µM"
  Result: "100%"
- Compound: "O=NN(Cc1ccccc1)c1cc(N2CCCC2)ncn1 [Compound 5045]"
  Parameter: "inhibition at 10 µM"
  Result: "48%"

----------
# Subject Of Test: deadenylylated MtbGS (Mycobacterium tuberculosis)
# Construct: made in house; host or cells: E. coli YMC11E with pTBSK
# Experiment Summary: biochemical
# Set-up: species or system M. tuberculosis
# Setup Conditions: 10μM final concentration, pre-incubation protocol, screen 2; read-out: Deadenylated Mtb GS (% inhibition) Screen 2

- Compound: "NC(CCS(=O)(=O)O)C(=O)O (stereo not shown)"
  inhibition at 10 µM (%): 0
- Compound: "COc1ccc(-c2nc3ccccn3c2Nc2c(C)cccc2C)cc1OC"
  inhibition at 10 µM (%): 48
- Compound: "Nc1nc(O)c2ccccc2n1"
  inhibition at 10 µM (%): 43
- Compound: "Nc1nc(N)c(NC(=O)c2ccccc2)c(O)n1"
  inhibition at 10 µM (%): 41

----------
# Subject Of Test: adenylylated MtbGS (Mycobacterium tuberculosis, UniProt P9WN39)
# Construct: made in house; host or cells: E. coli YMC11E(DE3) with pTBSK and pTBglnE
# Experiment Summary: biochemical
# Format: biochemical, M. tuberculosis
# Setup Conditions: 10μM final concentration, pre-incubation protocol, average over the 4 screens; read-out: Adenylated Mtb GS (% inhibition) AVG

- Compound: "Cc1nc(N)cc(C[n+]2csc(CCOP(=O)(O)O)c2C)n1 [Compound 5016]"
  inhibition at 10 µM / %: 43
- Compound: "OCCNc1cc(N2CCCC2)ncn1 [Compound 5024]"
  inhibition at 10 µM / %: 43
- Compound: "Cc1cccc(C)c1Nc1c(C(C)C)nc2ccccn12 [Compound 10057]"
  inhibition at 10 µM / %: 99
- Compound: "O=C(O)c1ccncc1 [Compound 5002]"
  inhibition at 10 µM / %: 45

----------
# Subject Of Test: deadenylylated MtbGS (Mycobacterium tuberculosis, UniProt P9WN39)
# Construct: made in house; host or cells: E. coli YMC11E with pTBSK
# Experiment Summary: biochemical
# Parameters: species or system M. tuberculosis
# Setup Conditions: 10μM final concentration, pre-incubation protocol, average over the 4 screens; read-out: Deadenylated Mtb GS (% inhibition) AVG
Item-by-item account of inhibition at 10 µM
Parameter: inhibition at 10 µM (%)

- Compound: "Cc1nc(N)cc(C[n+]2csc(CCOP(=O)(O)O)c2C)n1 [Compound 5016]"
  Subject Of Test: "deadenylylated MtbGS (Mycobacterium tuberculosis, UniProt P9WN39)"
  Number: 11
- Compound: "Cc1cccc(C)c1Nc1c(C(C)C)nc2ccccn12 [Compound 10057]"
  Subject Of Test: "deadenylylated MtbGS (Mycobacterium tuberculosis, UniProt P9WN39)"
  Number: 59
- Compound: "NC(CCS(=O)(=O)O)C(=O)O (stereo not drawn) [Compound 5]"
  Subject Of Test: "deadenylylated MtbGS (Mycobacterium tuberculosis, UniProt P9WN39)"
  Number: 2
- Compound: "Nc1nc(O)c2ccccc2n1 [Compound 12004]"
  Subject Of Test: "deadenylylated MtbGS (Mycobacterium tuberculosis, UniProt P9WN39)"
  Number: 42
- Compound: "c1ccc(CNc2cc(N3CCCC3)ncn2)cc1 [Compound 5029]"
  Subject Of Test: "deadenylylated MtbGS (Mycobacterium tuberculosis, UniProt P9WN39)"
  Number: 7
- Compound: "O=C(O)c1ccncc1 [Compound 5002]"
  Subject Of Test: "deadenylylated MtbGS (Mycobacterium tuberculosis, UniProt P9WN39)"
  Number: 8

Reference source: paper PMC5626031
